The reported measurements were obtained from patent US11512079B2.

Parameter MIC, tested on Cryptococcus neoformans H99, listed per item.

> print(dat)
                           molecular.string             result
1  Nc1ncccc1-c1cc(Cc2ccc(OCc3ccn4ccnc4c3)nc2)no1          > 1 µg/mL
2  Nc1ncccc1-c1cc(Cc2ccc(Oc3ccccc3F)nc2)no1  0.01 to 0.1 µg/mL

Consider the following items and state reported MIC for each.
1. Nc1ncccc1-c1cc(Cc2ccc(OCc3ccncc3F)nc2)no1
2. Nc1ncccc1-c1cc(Cc2ccc(Nc3cccc(F)c3F)nc2)no1

result:
1. 0.01 to 0.1 µg/mL
2. 0.01 to 0.1 µg/mL

Briefly, MIC measured for Nc1ncccc1-c1cc(Cc2ccc(CC3=CCOC3)cc2)no1 : 0.1 to 1 µg/mL

* * *

I'd appreciate it if you could supply minimal effective concentration values for the items below.
system: Aspergillus fumigatus MYA3626; experiment: In vitro antifungal assay (Example IX), microdilution broth, MEC; type: cell-based; conditions: minimum effective concentration (shortening of hyphae), 35° C., 40-48 h, RPMI1640

> print(dat)
                           molecular.string          result
1  Nc1ncccc1-c1cc(Cc2ccc(NCc3ccccc3F)nc2)no1  0.1 to 1 µg/mL
2  c1ccc(Sc2ccc(Cn3cc(-c4cccnc4)cn3)cn2)cc1  0.1 to 1 µg/mL

Consider the following items and state reported minimal effective concentration for each.
1. Nc1ncccc1-c1cc(Cc2ccc(C(=O)c3ccccc3)cc2)no1
2. Nc1ncccc1-c1cc(Cc2ccc(CNc3cccc(F)c3)cc2)no1
3. Nc1ncccc1-c1cc(Cc2ccc(Nc3c(F)cccc3F)nc2)no1

result:
["0.01 to 0.1 µg/mL", "0.01 to 0.1 µg/mL", "0.1 to 1 µg/mL"]

* * *

I'd appreciate it if you could supply minimal effective concentration values for the items below.
Test system: Rhizomucor pusillus 46342
Assay: In vitro antifungal assay (Example IX), microdilution broth, MEC
Assay type: cell-based
Settings: minimum effective concentration (shortening of hyphae), 35° C., 40-48 h, RPMI1640
Protocol: Measurement of antifungal activity: […] Candida albicans 90028, Aspergillus fumigatus MYA3626, Rhizomucor pusillus 46342 and Cryptococcus neoformans […] strains were obtained from American Type Culture Collection (ATCC). […] (A. fumigatus) and 35° C. (R. pusillus). […] The resulting spore suspension was counted and diluted into RPMI1640 medium to adjust to a final suspension of 1-2×10^4 spores/mL. […] This was validated by thorough mixing and reading at 600 nm on a microplate reader. […]

Some molecules with known minimal effective concentration results, for comparison:
> print(dat)
                                   molecule                  outcome.measure          result
1  Nc1ncccc1-c1cc(Cc2ccc(NCc3ccc(F)cc3)nc2)no1 [Example 153]  minimal effective concentration       > 1 µg/mL
2  Nc1ncccc1-c1cc(Cc2ccc(Nc3ccc(F)c(F)c3F)nc2)no1 [compound 245]  minimal effective concentration       > 1 µg/mL
3  Nc1ncccc1-c1cc(Cc2ccc(Oc3cccc(F)c3)nc2)no1 [compound 130]  minimal effective concentration  0.1 to 1 µg/mL
4  Nc1ncccc1-c1cc(Cc2ccc(OCc3ncccc3F)nc2)no1 [Example 162]  minimal effective concentration       > 1 µg/mL
5  Nc1ncccc1-c1cc(Cc2ccc(COc3cccc(F)c3)cc2)no1 [Example 169]  minimal effective concentration  0.1 to 1 µg/mL

Consider the following items and state reported minimal effective concentration for each.
1. Nc1ncccc1-c1cc(Cc2ccc(OCC3CCC3)nc2)no1 [compound 57]
2. Nc1ncccc1-c1cc(Cc2ccc(OCc3ccccc3C(F)(F)F)nc2)no1 [compound 128]
3. Nc1ncccc1-c1cc(Cc2ccc(CNc3cccc(F)c3)cc2)no1 [compound 107]
4. Nc1ncccc1-c1cc(Cc2ccc(OCc3ccnc(Cl)c3)cc2)no1 [compound 117]

result:
["0.1 to 1 µg/mL", "> 1 µg/mL", "0.01 to 0.1 µg/mL", "> 1 µg/mL"]

Consider the following items and state reported minimal effective concentration for each.
1. Nc1ncccc1-c1cc(Cc2cccc(OCCc3cccc(F)c3)n2)no1 [Example 147]
2. Nc1ncccc1-c1cc(Cc2ccc(CNc3ncns3)cc2)no1 [compound 6]
3. Nc1ncccc1-c1cc(Cc2ccc(OCc3ccoc3)nc2)no1 [compound 48]
4. Nc1ncccc1-c1cc(Cc2ccc(CNc3cnc4[nH]ccc4c3)cc2)no1 [compound 7]

result:
1: > 1 µg/mL; 2: > 1 µg/mL; 3: 0.1 to 1 µg/mL; 4: > 1 µg/mL

Consider the following items and state reported minimal effective concentration for each.
1. Cn1ccc(Cc2ccc(Cc3cc(-c4cccnc4N)on3)cc2)n1 [Example 152]
2. Nc1ncccc1-c1cc(Cc2ccc(S(=O)(=O)N3CCOCC3)cc2)no1 [compound 228]
3. Nc1ncccc1-c1cc(Cc2ccc(/C=C/C3CCCCC3)cc2)no1 [compound 99]
4. Nc1ncccc1-c1cc(Cc2ccc(CNCc3ccn[nH]3)cc2)no1 [compound 93]
5. Nc1ncccc1-c1cc(Cc2ccc(F)nc2)no1 [E]
6. C#CCOc1ccc(Cc2cc(-c3cccnc3N)on2)cn1 [Example 157]

result:
1. > 1 µg/mL
2. > 1 µg/mL
3. > 1 µg/mL
4. > 1 µg/mL
5. > 1 µg/mL
6. 0.1 to 1 µg/mL

* * *

Parameter MIC, tested on Cryptococcus gattii, listed per item.

Consider the following items and state reported MIC for each.
1. Nc1ncccc1-c1cc(Cc2ccc(CNc3ccccc3F)cc2)no1 [compound 106]
2. Nc1ncccc1-c1cc(Cc2ccc(OCc3ncco3)nc2)no1 [compound 53]
3. Nc1ncccc1-c1cc(Cc2ccc(Cc3cccc(F)n3)cc2)no1 [compound 15]
4. Nc1ncccc1-c1cc(Cc2ccc(Nc3ccccc3)nc2)no1 [compound 58]
5. Nc1ncccc1-c1cc(Cc2ccc(CNc3cccc(F)n3)cc2)no1 [compound 31]
6. Nc1ccc(-c2cc(Cc3ccc(OCc4ccccc4)cc3)no2)c(N)n1 [compound 132]
7. Nc1ncccc1-c1cc(Cc2ccc(CC3=CCOC3)cc2)no1 [compound 123]
8. Nc1ncccc1-c1cc(Cc2ccc(OCc3cccc(F)c3)cc2)no1 [Example 138]

result:
0.01 to 0.1 µg/mL
0.1 to 1 µg/mL
0.01 to 0.1 µg/mL
0.01 to 0.1 µg/mL
0.1 to 1 µg/mL
0.01 to 0.1 µg/mL
0.01 to 0.1 µg/mL
≤ 0.01 µg/mL

Consider the following items and state reported MIC for each.
1. Nc1ncccc1-c1cc(Cc2ccc(OCc3ccccc3F)nc2)no1 [compound 127]
2. Nc1ncccc1-c1cc(Cc2ccc(Oc3ccccc3F)nc2)no1 [compound 131]
3. Nc1ncccc1-c1cc(Cc2ccc(-c3ccncc3)cc2)no1 [compound 204]

result:
1. 0.01 to 0.1 µg/mL
2. 0.01 to 0.1 µg/mL
3. > 1 µg/mL

* * *

Parameter MIC, tested on Cryptococcus gattii, listed per item.

Some compounds with known MIC results, for comparison:
> print(dat)
                                   compound  experimental.target             result
1  Nc1ncccc1-c1cc(Cc2ccc(Oc3ncc(F)cc3F)cc2)no1  Cryptococcus gattii       ≤ 0.01 µg/mL
2  Nc1ncccc1-c1cc(Cc2ccc(OCc3ccnc(F)c3)nc2)no1  Cryptococcus gattii  0.01 to 0.1 µg/mL

Consider the following items and state reported MIC for each.
1. Nc1ncccc1-c1cc(Cc2ccc(OCc3ccc4ccccc4n3)cc2)no1
2. Nc1ncccc1-c1cc(Cc2ccc(SCc3ccccc3)nc2)no1
3. Nc1ncccc1-c1cc(Cc2ccc(Nc3ccccc3F)nc2)no1
4. Nc1ncccc1-c1cc(Cc2ccnc(OCc3ccccc3)c2)no1
5. [N-]=[N+]=Nc1cccc(NCc2ccc(Cc3cc(-c4cccnc4N)on3)cc2)c1
6. N#Cc1cccc(COc2ccc(Cc3cc(-c4cccnc4N)on3)cc2)n1

result:
0.1 to 1 µg/mL
0.01 to 0.1 µg/mL
0.01 to 0.1 µg/mL
0.01 to 0.1 µg/mL
0.01 to 0.1 µg/mL
0.1 to 1 µg/mL

Consider the following items and state reported MIC for each.
1. Nc1ncccc1-c1cc(Cc2ccc(CC3=CCCC3)cc2)no1
2. COc1cc(COc2ccc(Cc3cc(-c4cccnc4N)on3)cn2)c(F)cn1
3. Nc1ncccc1-c1cc(Cc2ccc(OCc3cnc4ccccc4n3)cc2)no1
4. Nc1ncccc1-c1cc(Cc2ccc(/C=C/c3cccc(F)c3)cc2)no1
5. Nc1ncccc1-c1cc(Cc2ccc(OCCn3cncn3)nc2)no1
6. Cn1cc(Cc2ccc(Cc3cc(-c4cccnc4N)on3)cc2)cn1
7. Nc1ncccc1-c1cc(Cc2ccnc(OCc3ccccc3F)c2)no1

result:
1: 0.01 to 0.1 µg/mL; 2: 0.1 to 1 µg/mL; 3: > 1 µg/mL; 4: > 1 µg/mL; 5: > 1 µg/mL; 6: 0.1 to 1 µg/mL; 7: 0.1 to 1 µg/mL

Consider the following items and state reported MIC for each.
1. Nc1ncccc1-c1cc(Cc2ccc(Cn3cc(C(F)(F)F)cn3)cc2)no1
2. Nc1ncccc1-c1cc(Cc2ccc(OCCc3ccccn3)nc2)no1
3. Nc1ncccc1-c1cc(Cc2ccc(OCc3ccccc3)cc2)no1
4. Nc1ncccc1-c1cc(Cc2ccc(C(O)c3ccccc3)cc2)no1 (stereo not shown)

result:
["0.1 to 1 µg/mL", "0.1 to 1 µg/mL", "0.01 to 0.1 µg/mL", "0.01 to 0.1 µg/mL"]
